# experiment: Particle size and PDI of nucleic acid lipid nanoparticle preparations by dynamic light scattering
# Assay type: physicochemical
# applied conditions: DMG-PEG2000:DSPC:Chol:compound 1.40:11.15:38.95:48.50, N/P 30
reported metric: Particle size (nm)
Form entry: value (nm) — number only.

>  <molecule>
CCCCCCCCC(CCCCCC)C(=O)OCCCCCCOC(=O)C(O)CN(CCCN(C)CCCN(CC(O)C(=O)OCCCCCCOC(=O)C(CCCCCC)CCCCCCCC)CC(O)C(=O)OCCCCCCOC(=O)C(CCCCCC)CCCCCCCC)CC(O)C(=O)OCCCCCCOC(=O)C(CCCCCC)CCCCCCCC (centres unmarked)

>  <readout unit>
nm

>  <Particle size (nm)>
135.33

$$$$
>  <molecule>
CCCC/C=C\CCOCOCCCCOC(=O)C(O)CN(CCN(C)CCN(CC(O)C(=O)OCCCCOCOCC/C=C\CCCC)CC(O)C(=O)OCCCCOCOCC/C=C\CCCC)CC(O)C(=O)OCCCCOCOCC/C=C\CCCC (centres unmarked)

>  <readout unit>
nm

>  <Particle size (nm)>
110.13

$$$$
>  <molecule>
CCCCCCCCCCOC(=O)C(O)CN(C)CCCN(C)CCCN(C)CC(O)C(=O)OCCCCCCCCCC (centres unmarked)

>  <readout unit>
nm

>  <Particle size (nm)>
141.63

$$$$
>  <molecule>
CCCCCCOC(C)OCCCCCCOC(=O)C(O)CN(CCCN(CC(O)C(=O)OCCCCCCOC(C)OCCCCCC)CC(O)C(=O)OCCCCCCOC(C)OCCCCCC)CCCN(CC(O)C(=O)OCCCCCCOC(C)OCCCCCC)CC(O)C(=O)OCCCCCCOC(C)OCCCCCC (centres unmarked)

>  <readout unit>
nm

>  <Particle size (nm)>
125.77

$$$$

Q: # Particle size (nm) lookup, item CCCCCCCCC(CCCCCC)C(=O)OCCCCCCOC(=O)C(O)CN(C)CCN(C)CCN(C)CC(O)C(=O)OCCCCCCOC(=O)C(CCCCCC)CCCCCCCC (centres unmarked)
Result: 151.20

Q: # Particle size (nm) lookup, item CCCCCCCCCCCCNC(=O)C(O)CNCCCN(C)CCCN(CC(O)C(=O)NCCCCCCCCCCCC)CC(O)C(=O)NCCCCCCCCCCCC (centres unmarked)
Result: 108.77

Q: # Particle size (nm) lookup, item CCCCCCCCCCOC(=O)C(O)CN(CCCN(C)CCCN(CC(O)C(=O)OCCCCCCCCCC)CC(O)C(=O)OCCCCCCCCCC)CC(O)C(=O)OCCCCCCCCCC (centres unmarked)
Result: 111.20

====

# Tested on: mice
# experiment: In vivo delivery of FLuc-mRNA lipid nanoparticles in mice, in vivo imaging (IVIS)
# applied conditions: IV, organ not given; DMG-PEG2000:DSPC:Chol:compound 1.40:11.15:38.95:48.50, N/P 20; Fluc-mRNA
IVIS reference
Write the number on its own, no unit after it.

>  <molecule>
CCCCCCCCCCCCOC(=O)C(O)CN(CCOCCN(CC(O)C(=O)OCCCCCCCCCCCC)CC(O)C(=O)OCCCCCCCCCCCC)CC(O)C(=O)OCCCCCCCCCCCC (stereo not drawn)

>  <data value>
5.52E+05

$$$$
>  <molecule>
CCCCCCCCCCCCOC(=O)C(O)CN(CCCCCN(CC(O)C(=O)OCCCCCCCCCCCC)CC(O)C(=O)OCCCCCCCCCCCC)CC(O)C(=O)OCCCCCCCCCCCC (stereo not drawn)

>  <data value>
1.32E+06

$$$$

Attention now shifts to the item below.
Q: # IVIS lookup, item CCCCCCCCCCNC(=O)C(O)CN(CCOCCN(CC(O)C(=O)NCCCCCCCCCC)CC(O)C(=O)NCCCCCCCCCC)CC(O)C(=O)NCCCCCCCCCC (stereo not drawn)
Result: 1.02E+06
